Target: T1, human RXFP1 (human, UniProt Q9HBX9 1-757)
T1 sequence (looked up): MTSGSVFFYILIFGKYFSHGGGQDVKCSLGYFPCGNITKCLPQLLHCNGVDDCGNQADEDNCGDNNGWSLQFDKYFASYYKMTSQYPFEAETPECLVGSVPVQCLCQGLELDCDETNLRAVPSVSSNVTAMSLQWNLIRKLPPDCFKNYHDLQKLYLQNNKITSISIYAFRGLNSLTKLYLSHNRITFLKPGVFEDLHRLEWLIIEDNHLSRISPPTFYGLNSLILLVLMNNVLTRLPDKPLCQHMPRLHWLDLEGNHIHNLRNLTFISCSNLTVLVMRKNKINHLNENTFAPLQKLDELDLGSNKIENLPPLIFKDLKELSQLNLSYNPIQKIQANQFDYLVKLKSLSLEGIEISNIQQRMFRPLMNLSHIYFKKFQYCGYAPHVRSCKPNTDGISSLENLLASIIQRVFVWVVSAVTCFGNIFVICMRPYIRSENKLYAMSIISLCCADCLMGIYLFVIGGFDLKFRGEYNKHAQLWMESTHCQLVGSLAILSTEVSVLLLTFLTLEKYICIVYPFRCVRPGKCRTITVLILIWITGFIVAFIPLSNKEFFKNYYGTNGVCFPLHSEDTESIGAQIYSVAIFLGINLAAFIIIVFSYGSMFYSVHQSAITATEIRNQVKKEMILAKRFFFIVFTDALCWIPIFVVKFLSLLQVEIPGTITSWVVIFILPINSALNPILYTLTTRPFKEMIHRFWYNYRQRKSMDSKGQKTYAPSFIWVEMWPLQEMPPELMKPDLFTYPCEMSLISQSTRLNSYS
Assay: cell-based or functional assay
Numbered stars: 1 amine (or outer) side, 2 acyl side, 3 side chain; on linkers, the order of the positions; unused ones are H or OH. Square brackets hold non-standard residues; d marks the D form. Side chains are listed from the residue outwards. * marks the point of attachment. TTDS = 4-[3-[2-[2-(3-aminopropoxy)ethoxy]ethoxy]propylamino]-4-oxo-butanoyl; γGlu = O=C(O)[C@H](CCC(=O)[*:2])N[*:1]; Stearoyl = CCCCCCCCCCCCCCCCCC(=O)*; Palmitoyl = CCCCCCCCCCCCCCCC(=O)*; αMeK = C[C@](N)(CCCCN)C(=O)O; hLys = NCCCCC[C@H](N)C(=O)O; Aib = CC(C)(N)C(=O)O
quantity_name: EMax, OVCAR 5 cells (cAMP) (%)

binder	EMax, OVCAR 5 cells (cAMP) (%)
Ac-LEGREKVRAK(Ac)I[Aib][Aib]EGK([TTDS-TTDS-TTDS-γGlu-γGlu-γGlu-Stearoyl])STWS[αMeK]RAK(Ac)-NH2 [Relaxin peptide analogue of SEQ ID NO: 30]	89
Ac-LEGREKVRAK(Ac)I[Aib][Aib]EGK([TTDS-TTDS-TTDS-γGlu-γGlu-γGlu-Palmitoyl])STF[dS]KRAK(Ac)-NH2 [Relaxin peptide analogue of SEQ ID NO: 14]	90
Ac-LEGREKVRAK(Ac)I[Aib][Aib]EGK([TTDS-TTDS-TTDS-γGlu-γGlu-γGlu-Palmitoyl])STF[Aib]KRAK(Ac)-NH2 [Relaxin peptide analogue of SEQ ID NO: 15]	85
Ac-[Aib]EGREKVRAK(Ac)I[Aib]IEGK([TTDS-TTDS-TTDS-γGlu-γGlu-γGlu-Palmitoyl])STFS[αMeK]RAK(Ac)-NH2 [Relaxin peptide analogue of SEQ ID NO: 86]	95
Ac-LEGREKVRAK(Ac)I[Aib][Aib]EGK([TTDS-TTDS-TTDS-TTDS-γGlu-γGlu-γGlu-Stearoyl])STWS[Aib]RKK(Ac)-NH2 [Relaxin peptide analogue of SEQ ID NO: 58]	98
Ac-LEGREKVRAK(Ac)I[Aib][Aib]EGK([TTDS-TTDS-TTDS-γGlu-γGlu-γGlu-Palmitoyl])STWS[Aib]RAK-NH2 [Relaxin peptide analogue of SEQ ID NO: 71]	95
Ac-LEGRE[hLys]VRAK(Ac)I[Aib][Aib]EGK([TTDS-TTDS-TTDS-γGlu-γGlu-γGlu-Palmitoyl])STFS[αMeK]RAK(Ac)-NH2 [Relaxin peptide analogue of SEQ ID NO: 28]	88
Ac-K(Ac)EGREKVRAK(Ac)I[Aib][Aib]EGK([TTDS-TTDS-TTDS-γGlu-γGlu-γGlu-Palmitoyl])STFS[αMeK]RAK(Ac)-NH2 [Relaxin peptide analogue of SEQ ID NO: 81]	98
Ac-LEGREKVRAK(Ac)I[Aib][Aib]EGK([TTDS-TTDS-TTDS-γGlu-γGlu-γGlu-Palmitoyl])SKWS[Aib]RKK(Ac)-NH2 [Relaxin peptide analogue of SEQ ID NO: 83]	94
